Record form. Attribute: IC50. Fill in for each entry.
- SYSTEM_UNDER_TEST: ALK2R206H (mutant ALK2, N-terminally tagged with GST) (Homo sapiens, UniProt Q04771, R206H)
- Sequence (Q04771 21-509 R206H): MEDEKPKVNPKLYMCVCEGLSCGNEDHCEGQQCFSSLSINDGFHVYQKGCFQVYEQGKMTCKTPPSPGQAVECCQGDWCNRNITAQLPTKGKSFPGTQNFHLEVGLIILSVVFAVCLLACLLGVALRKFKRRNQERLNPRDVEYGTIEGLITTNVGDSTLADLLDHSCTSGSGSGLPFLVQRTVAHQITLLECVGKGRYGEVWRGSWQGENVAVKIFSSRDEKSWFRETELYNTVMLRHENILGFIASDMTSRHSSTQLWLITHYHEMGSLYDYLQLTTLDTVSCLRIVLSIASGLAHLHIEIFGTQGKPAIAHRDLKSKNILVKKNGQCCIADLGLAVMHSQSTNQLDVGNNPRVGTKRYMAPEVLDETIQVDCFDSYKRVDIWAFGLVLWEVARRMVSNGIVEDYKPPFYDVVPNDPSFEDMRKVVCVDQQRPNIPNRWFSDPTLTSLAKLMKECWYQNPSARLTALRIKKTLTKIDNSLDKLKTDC
- ASSAY_SUMMARY: ALK binding assay (LANTHASCREEN TR-FRET competitive binding, displacement of Kinase Tracer 178)
- CONDITIONS_USED: read-out: Binding Assay (IC50 class)

These recorded examples may help you get a feel for the data.
* Cn1cc(-c2cc3c(N4CCN(C(=O)OCCS(C)(=O)=O)CC4)ccnc3[nH]2)cn1 | 10 to 50 nM
* Cn1cc(-c2cc3c(N4CCN(C(=O)C5CC(F)C5)CC4)ccnc3[nH]2)cn1 (centres unmarked) | ≤ 10 nM

Value sought for every listed molecule: IC50.
1. O=C(OC1COC1)N1CCN(c2ccnc3[nH]c(-c4cn5c(n4)COCC5)cc23)CC1
2. Cn1cc(-c2cc3c(N4CCN(C(=O)OC5COC5)CC4)ccnc3[nH]2)c(F)n1
3. Cc1cc(-c2cc3c(N4CCN(C(=O)OC5COC5)CC4)ccnc3[nH]2)cs1
4. Cc1nc(-c2[nH]c3nccc(N4CCN(C(=O)OCC(F)F)CC4)c3c2C#N)cs1
5. CC(=O)Nc1ccc(-c2cc3c(N4CCN(C(=O)OC5COC5)CC4)ccnc3[nH]2)nc1

1: ≤ 10 nM; 2: ≤ 10 nM; 3: ≤ 10 nM; 4: ≤ 10 nM; 5: 10 to 50 nM

What measured IC50 goes with Cc1nc(-c2cc3c(N4CCN(C(=O)O[C@H]5C[C@H](F)C5)CC4)ccnc3[nH]2)sc1C ?
≤ 10 nM

* * *

- SYSTEM_UNDER_TEST: ALK2R206H (mutant ALK2, N-terminally tagged with GST) (Homo sapiens, UniProt Q04771, R206H)
- ASSAY_SUMMARY: ALK binding assay (LANTHASCREEN TR-FRET competitive binding, displacement of Kinase Tracer 178)
- CONDITIONS_USED: read-out: Binding Assay (IC50 class)
MEASURED_PROPERTY: IC50

These recorded examples may help you get a feel for the data.
* O=C(C1CC1)N1CCN(c2ccnc3[nH]c(-c4ccc(C5(O)CCCC5)cc4)cc23)CC1 | ≤ 0.01 µM
* Cc1ccc(-c2cc3c(N4CCN(C(=O)OC5COC5)CC4)ccnc3[nH]2)s1 | ≤ 0.01 µM
* Cn1cc(-c2cc3c(N4CCN(C(=O)OC5CCOCC5)CC4)ccnc3[nH]2)cn1 | ≤ 0.01 µM

Value sought for every listed compound: IC50.
1. O=C(C1CC1)N1CCN(c2ccnc3[nH]c(-c4cc(F)cc(F)c4)cc23)CC1
2. CCc1c(-c2cc3c(N4CCN(C(=O)OC5COC5)CC4)ccnc3[nH]2)cnn1C
3. O=C(OC1COC1)N1CCN(c2ccnc3[nH]c(-c4cnccn4)cc23)CC1
4. Cn1ccc(-c2cc3c(N4CCN(C(=O)OC5COC5)CC4)ccnc3[nH]2)n1
5. Cn1cc(-c2cc3c(N4CCN(C(=O)C5CC(F)(F)C5)CC4)ccnc3[nH]2)cn1

1. ≤ 0.01 µM
2. ≤ 0.01 µM
3. 0.01 to 0.05 µM
4. ≤ 0.01 µM
5. ≤ 0.01 µM

Value sought for every listed compound: IC50.
1. CC(C)OC(=O)N1CCN(c2ccnc3[nH]c(-c4cnn(C)c4)c(Cl)c23)CC1
2. O=C(OC1COC1)N1CCN(c2ccnc3[nH]c(-c4cnn(C(F)F)c4)c(Cl)c23)CC1
3. Cn1cnc(-c2cc3c(N4CCN(C(=O)O[C@@H]5CC(F)(F)C5(F)F)CC4)ccnc3[nH]2)c1
4. N#Cc1cnc(-c2cc3c(N4CCN(C(=O)OC5COC5)CC4)ccnc3[nH]2)nc1
5. CCN1CCC(c2ccc(-c3cc4c(N5CCN(C(=O)C6CC6)CC5)ccnc4[nH]3)cc2)C(F)C1 (centres unmarked)

≤ 0.01 µM
≤ 0.01 µM
≤ 0.01 µM
≤ 0.01 µM
≤ 0.01 µM

Value sought for every listed compound: IC50.
1. CCOC(=O)N1CCN(c2ccnc3[nH]c(-c4ccc(C5(OC)CCOCC5)cn4)cc23)CC1
2. Cn1cnc(-c2[nH]c3nccc(N4CCN(C(=O)O[C@@H]5CCC5(F)F)CC4)c3c2C#N)c1
3. O=C(c1ccc(-c2cc3c(N4CCN(C(=O)C5CC5)CC4)ccnc3[nH]2)cc1)N1CCC1
4. CCOC(=O)N1CCN(c2ccnc3[nH]c(-c4cnn(C(C)(C)C#N)c4)cc23)CC1
5. Cn1cc(-c2cc3c(N4CCN(C(=O)OCC5COC5)CC4)ccnc3[nH]2)cn1
6. C[Si](C)(O)c1ccc(-c2cc3c(N4CCN(C(=O)C5CC5)CC4)ccnc3[nH]2)cc1
7. CC#Cc1c(-c2cnn(C)c2)[nH]c2nccc(N3CCN(C(=O)OCC)CC3)c12
8. Cn1cc(-c2cc3c(N4CCN(C(=O)O[C@H]5CCC5(F)F)CC4)ccnc3[nH]2)cn1

≤ 0.01 µM
≤ 0.01 µM
≤ 0.01 µM
≤ 0.01 µM
≤ 0.01 µM
≤ 0.01 µM
≤ 0.01 µM
≤ 0.01 µM

Value sought for every listed compound: IC50.
1. COC1(c2ccc(-c3cc4c(N5CCN(C(=O)OC6COC6)CC5)ccnc4[nH]3)nc2)CCOCC1
2. CCN1CCN(c2ccc(-c3cc4c(N5CCN(C(=O)C6CC6)CC5)ccnc4[nH]3)nc2)CC1
3. Cc1nc(-c2[nH]c3nccc(N4CCN(C(=O)OCC(F)F)CC4)c3c2Cl)cn1C
4. Cn1cc(-c2[nH]c3nccc(N4CCN(C(=O)OCC(F)F)CC4)c3c2Cl)cn1
5. Cn1cc(-c2cc3c(N4CCN(C(=O)OC5COC5)CC4)ccnc3[nH]2)nc1Cl
6. Cn1cc(-c2cc3c(N4CCN(C(=O)OC5CC5)CC4)ccnc3[nH]2)cn1
7. O=C(OC1COC1)N1CCN(c2ccnc3[nH]c(-c4nc(C(F)(F)F)cs4)cc23)CC1

1. ≤ 0.01 µM
2. ≤ 0.01 µM
3. ≤ 0.01 µM
4. ≤ 0.01 µM
5. ≤ 0.01 µM
6. ≤ 0.01 µM
7. 0.01 to 0.05 µM
